Target: human NKp30 (human) (UniProt O14931)
Sequence (O14931 19-135 limits assumed): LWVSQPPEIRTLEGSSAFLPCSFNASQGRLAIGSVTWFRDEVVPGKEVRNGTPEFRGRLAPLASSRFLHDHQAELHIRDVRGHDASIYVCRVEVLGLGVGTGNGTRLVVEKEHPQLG
Assay: BLI, immunoligand on anti-hFc tip
Task for the reader: assign each of the following binders its reported pKd.
Answers are plain numbers, as −log10 of the molar value.

Report pKd for ΔB7-H6_S3#4-SEED-PGLALA (bispecific antibody, part only; not given: SEED Fc chains and hu225 Fab, part only) chain, part: DLKVEMMAGGTQITPLNDNVTIFCNIFYSQPLNITIMGITWFWKSLTFDKEVKVFEFWGDHQEAFRPGAIVSPWRLKSGDASLRLPGIQLEEAGEYRCEVVVTPLKAQGTVQLEVVASPAS please. 7.62

Now consider the entry below.
Recorded pKd for ΔB7-H6_wt-SEED-PGLALA (bispecific antibody, part only; not given: SEED Fc chains and hu225 Fab, part only) chain, part: DLKVEMMAGGTQITPLNDNVTIFCNIFYSQPLNITSMGITWFWKSLTFDKEVKVFEFFGDHQEAFRPGAIVSPWRLKSGDASLRLPGIQLEEAGEYRCEVVVTPLKAQGTVQLEVVASPAS , please? 6.39
